These data points were gathered from patent US20170152269A1.

Read-out record for CDK2 (Homo sapiens): pIC50
pIC50: −log10 of the molar value. Structures can show the parent of a compound that is named as a salt.
reported-metric: pIC50

• N#Cc1sc2cnc(Nc3ccc(N4CCNCC4)cn3)cc2c1C1CCCC1 [Compound B1] = 8.55
• N#Cc1sc2cnc(Nc3ccc(N4CCNCC4)cn3)cc2c1C1CCCC1 [Compound B1s, hydrochloride] = 8.04
• N#Cc1sc2cnc(Nc3cnc(N4CCOCC4)nc3)cc2c1C1CCCC1 = 6.08

###

IC50 listing for selected compounds.
# measured-on: CDK5 (Homo sapiens, UniProt Q00535)
# Construct: purchased ThermoFisher (Waltham, Mass.)
# Sequence (Q00535 whole entry): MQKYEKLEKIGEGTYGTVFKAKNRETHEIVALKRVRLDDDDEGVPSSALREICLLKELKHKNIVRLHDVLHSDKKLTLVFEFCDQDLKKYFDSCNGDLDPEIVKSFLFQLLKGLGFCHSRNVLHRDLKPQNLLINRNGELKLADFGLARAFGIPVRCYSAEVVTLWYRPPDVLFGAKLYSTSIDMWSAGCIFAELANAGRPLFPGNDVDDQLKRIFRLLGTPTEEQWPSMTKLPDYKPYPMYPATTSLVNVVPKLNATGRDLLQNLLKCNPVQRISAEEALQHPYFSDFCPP
# Sequence (Q15078 whole entry partner): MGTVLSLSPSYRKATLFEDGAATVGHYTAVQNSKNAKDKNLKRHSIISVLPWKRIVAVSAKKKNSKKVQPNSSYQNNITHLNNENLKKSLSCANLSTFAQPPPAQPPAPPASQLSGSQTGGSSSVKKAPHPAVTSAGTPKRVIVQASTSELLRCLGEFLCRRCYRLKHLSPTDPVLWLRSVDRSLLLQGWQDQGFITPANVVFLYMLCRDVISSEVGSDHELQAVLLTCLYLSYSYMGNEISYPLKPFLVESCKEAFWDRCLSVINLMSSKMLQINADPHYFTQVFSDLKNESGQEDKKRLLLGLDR
# test-description: Lance TR-FRET kinase assay, CDK5
# Format: biochemical
# cond: ATP 20 μM, 60 min, read-out: CDK 5 inhibitory activity (IC50)
reported-metric: IC50 (nM)

* CN(C)C(=O)c1sc2cnc(Nc3ccc(N4CCNCC4)cn3)cc2c1C1CCCC1 [Compound A1] | 262
* N#Cc1sc2cnc(Nc3ccc(N4CCNCC4)cn3)cc2c1C1CCCC1 [Compound B1] | 24.4
